assay name: Acute oral toxicity (50 % lethal dose) in mice
measurement parameters: mouse, in vivo, orally administered to mice, read-out: 50 % lethal dose (LD₅₀)
property: LD50

Query :: What measured LD50 goes with "COc1ccc([C@@H]2Sc3cc(Cl)ccc3N(CCN(C)C)C(=O)[C@@H]2OC(C)=O)cc1" ?
Result :: ~800 mg/kg
